Experiment: NCI Yeast Anticancer Drug Screen. Data for the rad50 strain (AID 155);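 note: 0% = growth of vehicle-only cultures of the same strain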
Settings: S. cerevisiae rad50 strain growth inhibition; at 5.0 µM (retest, dose inferred, filed as 0.5); stronger effect = higher value
This is part of a sample that, as a whole, favours compounds with a hit. Of some 79,000 tested, about 15% had one in any assay.
Catalogue of growth inhibition readings, one per entry.
Lab book: enter the figure in %, no units written.

In: For the compound shown here, `O=C1c2ccccc2C(=O)c2cc(CCl)ccc21` , give the reported growth inhibition.
Out: 20

In: Continue with `CCC(=O)c1cc(C(=O)C(=S)SC)cc(C(=O)C(=S)SC)c1`
Out: 30

In: Continue with `O=C(NCCCl)Sc1ccc(Cl)cc1`
Out: -166

In: Continue with OC(CCNCc1ccccc1)c1ccc2ccccc2c1 (stereo unspecified)
Out: 22

In: Continue with `CNC(=O)OCc1c(COC(=O)NC)c(-c2ccc(Cl)c(Cl)c2)n2c1SCC2`
Out: -17

In: Continue with COC(=O)CC1(O)C(/C=C/c2ccccc2)C(C(=O)OC)C(=O)C(C(=O)OC)C1C(=O)OC (stereo unspecified)
Out: -3

* * *

Test: NCI Yeast Anticancer Drug Screen. Data for the mec2-1 strain (AID 157)
Conditions: S. cerevisiae mec2-1 strain, at 11.0 µM, stronger effect = higher value
This is part of a sample that, as a whole, favours compounds with a hit. Of some 79,000 tested, about 15% had one in any assay.
recorded_endpoint: growth inhibition (%)
Lab book: enter the figure in %, no units written.

In: For the compound shown here, CCCOC(=O)C(F)C(Br)C(=O)OCCC (stereo not drawn) , give the reported growth inhibition.
Out: 97

In: Continue with CCCCCCCCCCCC(O)S(=O)(=O)O (stereo not drawn)
Out: -2

In: Continue with `NNC(=O)CCc1cc2ccccc2c2ccccc12`
Out: -2

In: Continue with `O=C1C(Br)=C(c2ccccc2)O/C1=C/C(=O)c1ccc(Br)cc1`
Out: 8

Others:
In: For the compound shown here, `CCOC(=O)C#Cc1ccc([N+](=O)[O-])cc1` , give the reported growth inhibition.
Out: 7

In: Continue with `O=C(/C=C/c1cc(Cl)cc(Cl)c1O)c1cccc(O)c1`
Out: 85

In: Continue with `CCOc1c(N=Nc2ccccc2OC)c(C)nn1C(=S)S`
Out: 2

* * *

Catalogue of growth inhibition readings, one per entry.
Assay: NCI Yeast Anticancer Drug Screen. Data for the bub3 strain (AID 167)
Details: S. cerevisiae bub3 mutant strain, at 1.2 µM, stronger effect = higher value
This is part of a sample that, as a whole, favours compounds with a hit. Of some 79,000 tested, about 15% had one in any assay.
Lab book: enter the figure in %, no units written.

# count of solved cases: 5
In: For the compound shown here, `O=[N+]([O-])c1cccc2nc3ccccc3c(NCCCn3ccnc3[N+](=O)[O-])c12` , give the reported growth inhibition.
Out: -15

In: Continue with `Oc1ccc(O)c(Cc2ccccc2)c1`
Out: 8

In: Continue with `CCCCOC(=O)Nc1ccc(C)c(NC(=O)OCCCC)c1`
Out: -8

In: Continue with `O=c1nc2n(Cc3ccccc3)c3ccccc3nc-2c(=O)[nH]1`
Out: -3

In: Continue with `CCOC(=O)/C(=C\c1ccc(C#N)cc1)C(C)=O`
Out: 1

Others:
In: For the compound shown here, `O=C(/C=C/c1cc(Cl)cc(Cl)c1O)c1cccc(O)c1` , give the reported growth inhibition.
Out: -12

In: Continue with Cc1ccc(NC(=O)/C(CC2N=c3c(ccc4c(O)c5ccccc5c(O)c34)=NC2O)=N/NC(C)(C)C)cc1 (configuration not stated)
Out: -3

In: Continue with `Cc1c2ccnc(C(=O)NCCN(C)C)c2cc2c3cc(O)ccc3n(C)c12`
Out: 1

In: Continue with CC(=O)SC(C[N+](=O)[O-])c1ccccc1 (configuration not stated)
Out: 23

In: Continue with `c1ccc2[nH]c(-c3cscn3)nc2c1`
Out: 6

In: Continue with `O=C(NO)Nc1cc(Cl)cc(Cl)c1`
Out: -2

In: Continue with `CC(C)OC(=O)Nc1ccc2nc(-c3cscn3)[nH]c2c1`
Out: -3
